Origin of the recorded values: ChEMBL document CHEMBL1129491

Tested on: HFF
assay method text: Cytotoxicity against HFF cells, estimated by visual scoring of cells not affected by virus infection in the plaque reduction assay
Assay type: functional, cell-based
study conditions: Homo sapiens
Please provide measured IC50 for the entries that follow.

So what does the record say about IC50 for `Cc1ccccc1Cn1cc(C#N)c2c(N)ncnc21` ? > 100 µM

So what does the record say about IC50 for `COc1ccc(Cn2cc(C(N)=O)c3c(N)ncnc32)cc1` ? > 32 µM

So what does the record say about IC50 for `COCCOCn1cc(C(N)=O)c2c(N)ncnc21` ? > 100 µM

So what does the record say about IC50 for `NC(=S)c1c[nH]c2ncnc(N)c12` ? > 32 µM

So what does the record say about IC50 for `NC(=O)c1cn(COCc2ccccc2)c2ncnc(N)c12` ? > 100 µM

So what does the record say about IC50 for `Cc1ccc(Cn2cc(C(N)=O)c3c(N)ncnc32)cc1` ? > 100 µM

So what does the record say about IC50 for `CCCn1cc(C(=N)S)c2c(N)ncnc21` ? 25 µM

====

Please provide measured pIC50 for the entries that follow.
Test system: Human betaherpesvirus 5
assay method text: Antiviral activity against Human Cytomegalovirus (HCMV) replication in a plaque reduction assay
Assay type: functional, organism-based
To interpret pIC50, take it as minus log10 of a concentration measured in moles per litre.

Missing value: pIC50, Human betaherpesvirus 5, entry `NC(=S)c1cn([C@@H]2O[C@H](CO)[C@@H](O)[C@H]2O)c2ncnc(N)c12` . Fill in? 6.70

Missing value: pIC50, Human betaherpesvirus 5, entry `Cn1cc(C(=N)S)c2c(N)ncnc21` . Fill in? 5.92

Missing value: pIC50, Human betaherpesvirus 5, entry `CC(C)(C)c1ccc(Cn2cc(C#N)c3c(N)ncnc32)cc1` . Fill in? 4.49

Missing value: pIC50, Human betaherpesvirus 5, entry `COc1ccc(Cn2cc(C(N)=O)c3c(N)ncnc32)cc1` . Fill in? 4.89

Missing value: pIC50, Human betaherpesvirus 5, entry `CC(C)(C)c1ccc(Cn2cc(C(N)=O)c3c(N)ncnc32)cc1` . Fill in? 4.55

Missing value: pIC50, Human betaherpesvirus 5, entry `COc1ccc(Cn2cc(C(=N)S)c3c(N)ncnc32)cc1` . Fill in? 6.30

Missing value: pIC50, Human betaherpesvirus 5, entry `Cc1ccc(Cn2cc(C(=N)S)c3c(N)ncnc32)cc1` . Fill in? 7.00

Missing value: pIC50, Human betaherpesvirus 5, entry `Cc1ccccc1Cn1cc(C(=N)S)c2c(N)ncnc21` . Fill in? 7.00

Missing value: pIC50, Human betaherpesvirus 5, entry `CC(C)(C)c1ccc(Cn2cc(C(=N)S)c3c(N)ncnc32)cc1` . Fill in? 5.82

Missing value: pIC50, Human betaherpesvirus 5, entry `Cc1ccccc1Cn1cc(C#N)c2c(N)ncnc21` . Fill in? 5.47

Missing value: pIC50, Human betaherpesvirus 5, entry `NC(=S)c1cn(COCc2ccccc2)c2ncnc(N)c12` . Fill in? 5.59

Missing value: pIC50, Human betaherpesvirus 5, entry `CCCn1cc(C#N)c2c(N)ncnc21` . Fill in? 4.44

Missing value: pIC50, Human betaherpesvirus 5, entry `Cc1cccc(Cn2cc(C(=N)S)c3c(N)ncnc32)c1` . Fill in? 6.60

Missing value: pIC50, Human betaherpesvirus 5, entry `NC(=S)c1cn(COC(CO)CO)c2ncnc(N)c12` . Fill in? 5.21

Missing value: pIC50, Human betaherpesvirus 5, entry `CCCn1cc(C(=N)S)c2c(N)ncnc21` . Fill in? 5.92

Missing value: pIC50, Human betaherpesvirus 5, entry `CCOCn1cc(C(=N)S)c2c(N)ncnc21` . Fill in? 5.57

Missing value: pIC50, Human betaherpesvirus 5, entry `Cc1ccccc1Cn1cc(C(N)=O)c2c(N)ncnc21` . Fill in? 4.82

Missing value: pIC50, Human betaherpesvirus 5, entry `COCCOCn1cc(C#N)c2c(N)ncnc21` . Fill in? 4.05

====

System: HFF
assay method text: Cytotoxicity against HFF cells, estimated by visual scoring of cells not affected by virus infection in the plaque reduction assay
Assay type: functional, cell-based
study conditions: Homo sapiens
Please provide measured pIC50 for the entries that follow.
To interpret pIC50, take it as minus log10 of a concentration measured in moles per litre.

So what does the record say about pIC50 for `Cc1ccccc1Cn1cc(C(=N)S)c2c(N)ncnc21` ? 4.18

So what does the record say about pIC50 for `COc1ccc(Cn2cc(C(=N)S)c3c(N)ncnc32)cc1` ? 4.18

So what does the record say about pIC50 for `NC(=S)c1cn([C@@H]2O[C@H](CO)[C@@H](O)[C@H]2O)c2ncnc(N)c12` ? 6.70

So what does the record say about pIC50 for `Cc1ccc(Cn2cc(C(=N)S)c3c(N)ncnc32)cc1` ? 4.00

====

Please provide measured IC50 for the entries that follow.
Tested on: HFF
assay method text: Cytotoxicity against HFF cells, estimated by visual scoring of cells not affected by virus infection in the plaque reduction assay
Assay type: functional, cell-based
study conditions: Homo sapiens

So what does the record say about IC50 for `NC(=O)c1cn([C@@H]2O[C@H](CO)[C@@H](O)[C@H]2O)c2ncnc(N)c12` ? < 0.01 µM

So what does the record say about IC50 for `NC(=S)c1cn(COCc2ccccc2)c2ncnc(N)c12` ? > 100 µM

So what does the record say about IC50 for `N#Cc1c[nH]c2ncnc(N)c12` ? 10 µM

So what does the record say about IC50 for `CCOCn1cc(C(=N)S)c2c(N)ncnc21` ? 66 µM

So what does the record say about IC50 for `NC(=S)c1cn(COCCO)c2ncnc(N)c12` ? > 100 µM

So what does the record say about IC50 for `CCOCn1cc(C#N)c2c(N)ncnc21` ? > 100 µM

So what does the record say about IC50 for `Cc1cccc(Cn2cc(C(=N)S)c3c(N)ncnc32)c1` ? 66 µM

So what does the record say about IC50 for `Cc1cccc(Cn2cc(C(N)=O)c3c(N)ncnc32)c1` ? > 100 µM

So what does the record say about IC50 for `Cc1cccc(Cn2cc(C#N)c3c(N)ncnc32)c1` ? > 100 µM

So what does the record say about IC50 for `Cc1ccc(Cn2cc(C#N)c3c(N)ncnc32)cc1` ? > 100 µM

So what does the record say about IC50 for `Cc1ccccc1Cn1cc(C(N)=O)c2c(N)ncnc21` ? > 100 µM

So what does the record say about IC50 for `NC(=S)c1cn(COC(CO)CO)c2ncnc(N)c12` ? > 100 µM

So what does the record say about IC50 for `COc1ccc(Cn2cc(C#N)c3c(N)ncnc32)cc1` ? > 100 µM

So what does the record say about IC50 for `NC(=S)c1cn(Cc2ccccc2)c2ncnc(N)c12` ? > 32 µM

So what does the record say about IC50 for `CCCn1cc(C#N)c2c(N)ncnc21` ? > 100 µM

So what does the record say about IC50 for `NC(=O)c1cn(Cc2ccccc2)c2ncnc(N)c12` ? > 32 µM

So what does the record say about IC50 for `COCCOCn1cc(C#N)c2c(N)ncnc21` ? > 100 µM

So what does the record say about IC50 for `CC(C)(C)c1ccc(Cn2cc(C(=N)S)c3c(N)ncnc32)cc1` ? > 100 µM

So what does the record say about IC50 for `N#Cc1cn(COCc2ccccc2)c2ncnc(N)c12` ? > 100 µM

So what does the record say about IC50 for `N#Cc1cn(Cc2ccccc2)c2ncnc(N)c12` ? > 100 µM

So what does the record say about IC50 for `N#Cc1cn([C@@H]2O[C@H](CO)[C@@H](O)[C@H]2O)c2ncnc(N)c12` ? < 0.01 µM

So what does the record say about IC50 for `CCOCn1cc(C(N)=O)c2c(N)ncnc21` ? > 100 µM

So what does the record say about IC50 for `COCCOCn1cc(C(N)=S)c2c(N)ncnc21` ? > 100 µM

So what does the record say about IC50 for `CC(C)(C)c1ccc(Cn2cc(C(N)=O)c3c(N)ncnc32)cc1` ? 100 µM

So what does the record say about IC50 for `CC(C)(C)c1ccc(Cn2cc(C#N)c3c(N)ncnc32)cc1` ? > 32 µM

====

Please provide measured pIC50 for the entries that follow.
System: Human betaherpesvirus 5
assay method text: Antiviral activity against Human Cytomegalovirus (HCMV) replication in a plaque reduction assay
Format: functional, organism-based
To interpret pIC50, take it as minus log10 of a concentration measured in moles per litre.

So what does the record say about pIC50 for `NC(=S)c1cn(COCCO)c2ncnc(N)c12` ? 5.06

So what does the record say about pIC50 for `C=CCn1cc(C(N)=S)c2c(N)ncnc21` ? 5.68

So what does the record say about pIC50 for `NC(=S)c1c[nH]c2ncnc(N)c12` ? 5.80

So what does the record say about pIC50 for `COCCOCn1cc(C(N)=S)c2c(N)ncnc21` ? 6.00

So what does the record say about pIC50 for `NC(=S)c1cn(Cc2ccccc2)c2ncnc(N)c12` ? 6.44

So what does the record say about pIC50 for `N#Cc1c[nH]c2ncnc(N)c12` ? 5.41
